# Tested on: Human promyelocytic leukemia (HL60) cells
# Assay protocol: HL-60 differentiation (nitro blue tetrazolium reduction)
# Assay type: cell-based
# Condition notes: Homo sapiens, 96 h; HL-60 cells into monocytes, 4 days
Quantity measured: EC50 (µM)

(a) C=C1[C@H](O)CC(=C/C=C2\CCC[C@]3(C)[C@@H]([C@H](C)CC(C)C)CC[C@@H]23)C[C@H]1O
(b) C=C1[C@H](O)CC(=C/C=C2\CCC[C@]3(C)[C@@H]([C@@H](C)CC(C)C)CC[C@@H]23)C[C@H]1O
## Task # argmax over EC50 for candidates a and b Identify your selection by its label.
## Result a

----------
# Study target: Full-length recombinant rat receptor (vitamin D receptor) (Rattus norvegicus, UniProt P13053)
# Construct: Full-length recombinant rat receptor was expressed in E. coli; histidine tag (C); made in house; host or cells: E. coli BL21(DE3) Codon Plus RIL
# Sequence (P13053 whole entry): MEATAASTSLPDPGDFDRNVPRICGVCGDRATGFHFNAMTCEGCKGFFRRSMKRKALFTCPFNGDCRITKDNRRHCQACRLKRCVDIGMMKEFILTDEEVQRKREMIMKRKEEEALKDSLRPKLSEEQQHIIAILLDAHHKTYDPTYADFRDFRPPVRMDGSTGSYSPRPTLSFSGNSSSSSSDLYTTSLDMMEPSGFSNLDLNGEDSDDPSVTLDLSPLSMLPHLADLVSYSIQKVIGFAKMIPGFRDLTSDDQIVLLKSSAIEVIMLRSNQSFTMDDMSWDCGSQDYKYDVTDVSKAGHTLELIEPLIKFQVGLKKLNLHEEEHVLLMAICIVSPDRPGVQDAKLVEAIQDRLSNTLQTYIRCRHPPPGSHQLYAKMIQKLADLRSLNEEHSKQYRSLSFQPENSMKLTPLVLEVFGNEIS
# Assay protocol: Vitamin D receptor competitive binding
# Condition notes: recombinant rat VDR, 3H-1,25(OH)2D3 1 nM
Quantity measured: Ki (nM)

(I) C=C1[C@H](O)CC(=C/C=C2\CCC[C@]3(C)[C@@H]([C@@H](C)CC(C)C)CC[C@@H]23)C[C@H]1O
(II) C=C1[C@H](O)CC(=C/C=C2\CCC[C@]3(C)[C@@H]([C@H](C)CC(C)C)CC[C@@H]23)C[C@H]1O
## Task Please choose the item with the lower Ki value from this pair: I and II Identify your selection by its label.
## Result I

From: patent US20140011778A1
